The origin of these recorded values is ChEMBL document CHEMBL3813628.

- targetOrTestSystem: Nuclear factor erythroid 2-related factor 2 (Homo sapiens)
- assayProcedure: Activation of Nrf2 in human HepG2 cells at 2 uM incubated for 12 hrs by ARE-driven luciferase reporter gene assay relative to control
- Assay type: cell-based
measurementType: fold change (FC)
Give the figure only, with no unit attached.

Reference set, count: 4
{"compound": "Cn1cnc2ccc(-c3noc(-c4ccc5cc[nH]c5c4)n3)cc21", "fold change (FC)": 3.35}
{"compound": "Cc1nc2cc(-c3noc(-c4cnccn4)n3)ccc2o1", "fold change (FC)": 4.67}
{"compound": "CC(C)n1c(=O)[nH]c2cc(-c3noc(C4CCCCC4)n3)ccc21", "fold change (FC)": 7.51}
{"compound": "Cc1nc2cc(-c3noc(-c4ccc5[nH]cnc5c4)n3)ccc2o1", "fold change (FC)": 3.95}

Here is another compound to look at.
[in] Which measured fold change (FC) value corresponds to CN(C)C=O [DIMETHYLFORMAMIDE] ?
[out] 1.1

* * *

- targetOrTestSystem: Nuclear factor erythroid 2-related factor 2 (Homo sapiens)
- assayProcedure: Activation of Nrf2 in human HepG2 cells at 0.2 uM incubated for 12 hrs by ARE-driven luciferase reporter gene assay relative to control
- Assay type: cell-based
Lab note: compare fold change (FC) against 4. Equal or greater, write rule met. Smaller, write rule not met.

See these solved cases before continuing.
{"smilesEntry": "CN(C)c1cccc(-c2nc(-c3ccc4c(c3)[nH]c(=O)n4C3CCCC3)no2)c1", "assignedLabel": "rule not met"}
{"smilesEntry": "CC(C)n1c(=O)[nH]c2cc(-c3noc(C4CCCCC4)n3)ccc21", "assignedLabel": "rule met"}
{"smilesEntry": "c1ccc(-c2nc3cc(-c4noc(-c5ccc6[nH]cnc6c5)n4)ccc3o2)cc1", "assignedLabel": "rule met"}
{"smilesEntry": "Clc1cc(-c2nc(-c3ccc4oc(-c5ccccc5)nc4c3)no2)ccn1", "assignedLabel": "rule not met"}

Kindly consider the entry below.
[in] Is fold change (FC) for `Cc1nc2cc(-c3noc(-c4cnccn4)n3)ccc2o1` at or above 4?
[out] rule met

* * *

fold change (FC) listing for selected molecules.
- targetOrTestSystem: Nuclear factor erythroid 2-related factor 2 (Homo sapiens)
- assayProcedure: Activation of Nrf2 in human HepG2 cells at 20 uM incubated for 12 hrs by ARE-driven luciferase reporter gene assay relative to control
- Format: cell-based

{"smilesEntry": "COc1ccc(Cl)cc1-c1nc(-c2ccc3oc(C)nc3c2)no1", "targetOrTestSystem": "Nuclear factor erythroid 2-related factor 2 (Homo sapiens)", "fold change (FC)": 3.72}
{"smilesEntry": "CC(C)n1c(=O)[nH]c2cc(-c3noc(/C=C/c4ccccc4)n3)ccc21", "targetOrTestSystem": "Nuclear factor erythroid 2-related factor 2 (Homo sapiens)", "fold change (FC)": 5.19}
{"smilesEntry": "CN(C)c1cccc(-c2nc(-c3ccc4c(c3)[nH]c(=O)n4C3CCCC3)no2)c1", "targetOrTestSystem": "Nuclear factor erythroid 2-related factor 2 (Homo sapiens)", "fold change (FC)": 5.38}
{"smilesEntry": "c1ccc(-c2nc3cc(-c4noc(-c5ccc6[nH]cnc6c5)n4)ccc3o2)cc1", "targetOrTestSystem": "Nuclear factor erythroid 2-related factor 2 (Homo sapiens)", "fold change (FC)": 6.96}

[in] Which measured fold change (FC) value corresponds to `CCCn1c(=O)[nH]c2cc(-c3noc(C4CCCC4)n3)ccc21` ?
[out] 7.27

[in] Which measured fold change (FC) value corresponds to `Cc1nc2cc(-c3noc(-c4cccc(C#N)c4)n3)ccc2o1` ?
[out] 2.6

[in] Which measured fold change (FC) value corresponds to `CCOc1ccc(-c2nc(-c3ccc(-c4csc(C)n4)cc3)no2)c(CC)c1` ?
[out] 3.08

[in] Which measured fold change (FC) value corresponds to `Cc1nc2cc(-c3noc(-c4ccc5[nH]cnc5c4)n3)ccc2o1` ?
[out] 7.98

* * *

- targetOrTestSystem: Nuclear factor erythroid 2-related factor 2 (Homo sapiens) (UniProt Q16236)
- assayProcedure: Activation of Nrf2 in human HepG2 cells at 80 uM incubated for 12 hrs by ARE-driven luciferase reporter gene assay relative to control
- Type: cell-based
fold change (FC) listing for selected compounds.
Give the figure only, with no unit attached.

{"smilesEntry": "CCCn1c(=O)[nH]c2cc(-c3noc(C4CCCC4)n3)ccc21", "measurementType": "fold change (FC)", "val": 6.01}
{"smilesEntry": "Cc1nc2cc(-c3noc(-c4cnccn4)n3)ccc2o1", "measurementType": "fold change (FC)", "val": 17.1}
{"smilesEntry": "Cn1cnc2ccc(-c3noc(-c4ccc5cc[nH]c5c4)n3)cc21", "measurementType": "fold change (FC)", "val": 12.1}
{"smilesEntry": "Cc1nc2cc(-c3noc(-c4ccc5[nH]cnc5c4)n3)ccc2o1", "measurementType": "fold change (FC)", "val": 4.88}

Here is another compound to look at.
[in] Which measured fold change (FC) value corresponds to `Cc1nc2cc(-c3noc(/C=C/c4ccccc4)n3)ccc2o1` ?
[out] 7.31

* * *

- targetOrTestSystem: Nuclear factor erythroid 2-related factor 2 (Homo sapiens) (UniProt Q16236)
- Sequence (whole entry): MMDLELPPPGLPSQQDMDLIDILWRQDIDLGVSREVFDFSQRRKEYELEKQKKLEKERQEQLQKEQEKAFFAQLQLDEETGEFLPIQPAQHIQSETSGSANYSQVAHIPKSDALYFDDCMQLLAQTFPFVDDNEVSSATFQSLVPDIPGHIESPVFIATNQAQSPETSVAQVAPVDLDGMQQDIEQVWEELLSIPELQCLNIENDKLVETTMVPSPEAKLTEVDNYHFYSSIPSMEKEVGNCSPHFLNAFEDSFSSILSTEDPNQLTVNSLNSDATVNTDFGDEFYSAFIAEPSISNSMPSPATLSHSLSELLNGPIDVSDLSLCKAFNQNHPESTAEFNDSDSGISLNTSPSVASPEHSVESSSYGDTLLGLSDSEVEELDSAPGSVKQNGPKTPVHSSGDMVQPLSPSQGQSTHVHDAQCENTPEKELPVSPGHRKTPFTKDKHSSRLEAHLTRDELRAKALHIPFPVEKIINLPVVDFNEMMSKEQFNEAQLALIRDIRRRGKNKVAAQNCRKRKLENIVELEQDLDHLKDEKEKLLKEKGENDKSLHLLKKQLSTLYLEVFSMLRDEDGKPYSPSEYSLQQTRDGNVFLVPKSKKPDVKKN
- assayProcedure: Activation of Nrf2 in human HepG2 cells at 160 uM incubated for 12 hrs by ARE-driven luciferase reporter gene assay relative to control
- Assay type: cell-based
Lab note: compare fold change (FC) against 8. Equal or greater, write condition met. Smaller, write condition not met.

See these solved cases before continuing.
{"smilesEntry": "Cn1cnc2ccc(-c3noc(-c4ccc5cc[nH]c5c4)n3)cc21", "targetOrTestSystem": "Nuclear factor erythroid 2-related factor 2 (Homo sapiens) (UniProt Q16236)", "assignedLabel": "condition met"}
{"smilesEntry": "CC(C)n1c(=O)[nH]c2cc(-c3noc(C4CCCCC4)n3)ccc21", "targetOrTestSystem": "Nuclear factor erythroid 2-related factor 2 (Homo sapiens) (UniProt Q16236)", "assignedLabel": "condition not met"}
{"smilesEntry": "CC(C)(C)c1cc(O)ccc1O", "targetOrTestSystem": "Nuclear factor erythroid 2-related factor 2 (Homo sapiens) (UniProt Q16236)", "assignedLabel": "condition met"}

[in] Is fold change (FC) for `Cc1nc2cc(-c3noc(/C=C/c4ccccc4)n3)ccc2o1` at or above 8?
[out] condition not met

[in] Is fold change (FC) for `Cc1nc2cc(-c3noc(-c4ccc5[nH]cnc5c4)n3)ccc2o1` at or above 8?
[out] condition not met

[in] Is fold change (FC) for `CCCn1c(=O)[nH]c2cc(-c3noc(C4CCCC4)n3)ccc21` at or above 8?
[out] condition met

* * *

- targetOrTestSystem: Nuclear factor erythroid 2-related factor 2 (Homo sapiens) (UniProt Q16236)
- assayProcedure: Activation of Nrf2 in human HepG2 cells at 0.2 uM incubated for 12 hrs by ARE-driven luciferase reporter gene assay relative to control
- Assay type: cell-based
measurementType: fold change (FC)

{"compound": "CCCn1c(=O)[nH]c2cc(-c3noc(C4CCCC4)n3)ccc21", "fold change (FC)": 4.19}
{"compound": "Cc1nc2cc(-c3noc(-c4ccc5[nH]cnc5c4)n3)ccc2o1", "fold change (FC)": 2.35}

[in] Which measured fold change (FC) value corresponds to `Cc1nc2cc(-c3noc(/C=C/c4ccccc4)n3)ccc2o1` ?
[out] 3.14

[in] Which measured fold change (FC) value corresponds to CN(C)C=O [DIMETHYLFORMAMIDE] ?
[out] 1

[in] Which measured fold change (FC) value corresponds to `Cn1cnc2ccc(-c3noc(-c4ccc5cc[nH]c5c4)n3)cc21` ?
[out] 1.5

[in] Which measured fold change (FC) value corresponds to CC(C)(C)c1cc(O)ccc1O [E319] ?
[out] 1.25

* * *

- targetOrTestSystem: Nuclear factor erythroid 2-related factor 2 (Homo sapiens) (UniProt Q16236)
- assayProcedure: Activation of Nrf2 in human HepG2 cells at 5 uM incubated for 12 hrs by ARE-driven luciferase reporter gene assay relative to control
- Format: cell-based
fold change (FC) listing for selected compounds.

[in] Which measured fold change (FC) value corresponds to `CCOc1ccc(-c2nc(-c3ccc4[nH]c(=O)n(C5CCCC5)c4c3)no2)cc1OCC` ?
[out] 1.31

[in] Which measured fold change (FC) value corresponds to `Cc1nc2cc(-c3noc(-c4cccnc4)n3)ccc2o1` ?
[out] 3.29

[in] Which measured fold change (FC) value corresponds to `CN(C)c1cccc(-c2nc(-c3ccc4c(c3)[nH]c(=O)n4C3CCCC3)no2)c1` ?
[out] 1.94

[in] Which measured fold change (FC) value corresponds to `CC(C)n1c(=O)[nH]c2cc(-c3noc(/C=C/c4ccccc4)n3)ccc21` ?
[out] 3.19

[in] Which measured fold change (FC) value corresponds to `CCOc1ccc(-c2nc(-c3ccc(-c4csc(C)n4)cc3)no2)c(CC)c1` ?
[out] 1.09

[in] Which measured fold change (FC) value corresponds to `CCc1cc(O)nc(SCc2nc(-c3ccc(Cl)c(F)c3)no2)n1` ?
[out] 1.38

[in] Which measured fold change (FC) value corresponds to `Cc1nc2cc(-c3noc(-c4cnccn4)n3)ccc2o1` ?
[out] 6.85

[in] Which measured fold change (FC) value corresponds to `CCc1ccc(-c2nc(-c3ccc4oc(C)nc4c3)no2)cc1` ?
[out] 2.36

[in] Which measured fold change (FC) value corresponds to `CC(C)n1c(=O)[nH]c2cc(-c3noc(C4CCCCC4)n3)ccc21` ?
[out] 4.98

[in] Which measured fold change (FC) value corresponds to `c1ccc(-c2nc3cc(-c4noc(-c5ccc6[nH]cnc6c5)n4)ccc3o2)cc1` ?
[out] 4.55

[in] Which measured fold change (FC) value corresponds to `Cc1nc2cc(-c3noc(/C=C/c4ccccc4)n3)ccc2o1` ?
[out] 4.64
